Assay info: NCI Yeast Anticancer Drug Screen. Data for the rad50 strain (AID 155);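 further: 0% = growth of vehicle-only cultures of the same strain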
Condition: S. cerevisiae rad50 strain growth inhibition; at 50.0 µM
The panel holds about 79,000 compounds, 15% with a hit somewhere; the sample as a whole holds those more often. The source made the active and inactive calls. No stated cut-off is given here; in the data, active means growth inhibition above about 70%; inactive means the rest.
Please answer using one outcome listed in active, inactive

Please indicate how the test categorized COc1cc2c(cc1OC)c1c(OC)c(OC)cc3c1c1c2sc(=S)n1CC3 .
active

Please indicate how the test categorized O=S(=O)(Nc1ccccn1)c1ccc(NCc2c3ccccc3nc3cc(Cl)ccc23)cc1 .
inactive

Please indicate how the test categorized C/C(=N/O)c1cccc(C(F)(F)F)c1 .
inactive

Please indicate how the test categorized Cc1c2ccccc2c(=O)n2c(-c3ccccn3)cccc12 .
inactive

Please indicate how the test categorized CC(C)(C)C1CCC(SCCO)CC1 (stereo not drawn) .
active

Please indicate how the test categorized Cc1nc(-c2cccc(Cl)c2)oc1-c1ccccc1 .
inactive

Please indicate how the test categorized CC(=O)CC(=O)OCc1ccccc1 .
active

Please indicate how the test categorized [N-]=[N+]=Nc1ccc(SN2C(=O)c3ccccc3C2=O)cc1 .
active

Please indicate how the test categorized COC(=O)CSc1n[nH]c(-c2ccc(O)c([N+](=O)[O-])c2)n1 .
inactive

Please indicate how the test categorized S=C(N/N=C/c1ccco1)NC12CC3CC(CC(C3)C1)C2 .
inactive

Please indicate how the test categorized O=C1c2sccc2-c2cccc3cccc1c23 (tested in a mixture with another compound) .
active

Please indicate how the test categorized NC(=S)NNCCC(=O)Nc1ccccc1C(F)(F)F .
inactive

Please indicate how the test categorized COC(=O)c1c2oc3c(C(=O)OC)cccc3nc-2cc(N)c1=O .
inactive

Please indicate how the test categorized O=C1OCCCOC(=O)c2cc(ccc2O)OCC#CC#CCOc2ccc(O)c1c2 .
inactive

Please indicate how the test categorized COc1ccc2ccc(=O)oc2c1CC=C(C)C .
inactive

Please indicate how the test categorized COC(=O)C(=O)/C=C(/O)c1ccc(OC)cc1 .
inactive

Please indicate how the test categorized Nc1ccc2nc(N)sc2c1 .
inactive

Please indicate how the test categorized O=C1C=CC(=O)C2C3C=CC(CC3)C12 (stereo not drawn) .
inactive

Please indicate how the test categorized O=c1cc(-c2ccccc2)oc(-c2ccccc2)c1 .
active

Please indicate how the test categorized [Br][Pt+2][Br].[NH-]c1cccc(I)c1.[NH-]c1cccc(I)c1 .
inactive

Please indicate how the test categorized FC(F)(F)COP1(OCC(F)(F)F)=NP(OCC(F)(F)F)(OCC(F)(F)F)=NP(c2ccccc2)(c2ccccc2)=N1 .
inactive

Please indicate how the test categorized COc1ccc(C(c2ccc(N(C)C)cc2)c2ccc(N(C)C)cc2)cc1 .
active

Please indicate how the test categorized O=C/C=C/c1cc([N+](=O)[O-])ccc1Cl .
active

---

Assay info: NCI Yeast Anticancer Drug Screen. Data for the sgs1 mgt1 strain (AID 161);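 further: 0% = growth of cultures given vehicle only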
Condition: S. cerevisiae sgs1 mgt1 strain, at 50.0 µM, stronger effect = higher value
This is part of a sample that, as a whole, favours compounds with a hit. Of some 79,000 tested, about 15% had one in any assay.
Quantity kind: growth inhibition (%)
Value expressed in %; do not type the unit.

Given COc1cc2c(cc1OC)-c1nc(Nc3ccccc3)sc1CC2 , state its recorded growth inhibition.
82

Given Cc1ccc(N2C(=O)C(Cl)=C(Cl)C2=O)cc1 , state its recorded growth inhibition.
99.5

Given CN(C)CCC(=O)[C@@]1(O)CC[C@H]2[C@@H]3CC=C4C[C@@H](O)CC[C@]4(C)[C@H]3CC[C@@]21C , state its recorded growth inhibition.
58.1

Given CCNc1cc(N)[n+](CC)c2n[nH]c(/N=C/c3cc(Cl)cc(Cl)c3O)c12 , state its recorded growth inhibition.
89.8

Given Cc1ccnc(NCCN(C)C)c1 , state its recorded growth inhibition.
97.5

Given c1ccc2c(Nc3ccc(Oc4ccc(Nc5c6ccccc6nc6ccccc56)cc4)cc3)c3ccccc3nc2c1 , state its recorded growth inhibition.
-22.9

Given O=C1CCS(=O)(=O)c2ccccc21 , state its recorded growth inhibition.
57.7

Given COC(=O)C1(Cc2ccc3c(c2)CCC3)Cc2ccccc2C1O (stereo unspecified) , state its recorded growth inhibition.
86.2

Given Cc1ccc2nn(-c3ccc(O)cc3)nc2c1 , state its recorded growth inhibition.
27

Given Nc1ccc2c(SCC(=O)Nc3ccccc3-c3ccccc3NC(=O)CSc3c4ccccc4nc4cc(N)ccc34)c3ccccc3nc2c1 , state its recorded growth inhibition.
91.2

Given COc1ccc(-c2c3ccccc3[n+](-c3ccccc3)c3ccccc23)cc1 , state its recorded growth inhibition.
99.5

Given N=C(N)c1ccc(Oc2ccc(Oc3ccc(C(=N)N)cc3)cc2)cc1 , state its recorded growth inhibition.
81.2

Given O=C1OC(c2cccc(Cl)c2)=N/C1=C\C=C/c1ccccc1 , state its recorded growth inhibition.
17.6

Given O=[N+]([O-])c1c(C=Nc2ccccc2)oc(-c2c(O)ccc3ccccc23)c1-c1c(O)ccc2ccccc12 , state its recorded growth inhibition.
98.8

Given O=C(O)/C=C/CCC1SCC2NC(=O)NC21 (stereo unspecified) , state its recorded growth inhibition.
88.3

Given Nc1ccc2c(c1)CCc1ccccc1-2 , state its recorded growth inhibition.
89.8
